assay: self-splicing fitness, log relative to wild type (ln ratio); higher = more splicing; Tetrahymena group I intron in knt gene, E. coli kanamycin selection, DiMSum; sequences stand for … in CUCUCU…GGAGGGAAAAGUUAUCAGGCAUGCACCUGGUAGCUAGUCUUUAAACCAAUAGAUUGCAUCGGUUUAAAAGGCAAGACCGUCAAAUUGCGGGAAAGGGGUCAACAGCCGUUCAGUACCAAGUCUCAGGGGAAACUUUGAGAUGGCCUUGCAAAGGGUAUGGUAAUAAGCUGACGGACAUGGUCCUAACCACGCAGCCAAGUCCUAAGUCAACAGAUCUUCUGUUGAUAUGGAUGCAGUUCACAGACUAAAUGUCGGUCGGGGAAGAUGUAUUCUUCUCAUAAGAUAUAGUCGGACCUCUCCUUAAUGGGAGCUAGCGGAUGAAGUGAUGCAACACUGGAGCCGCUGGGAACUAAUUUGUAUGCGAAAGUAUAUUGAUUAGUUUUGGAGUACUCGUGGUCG; details: 30 °C;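 also: selection with 25 µg/mL kanamycin versus none on LB agar overnight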
# self-splicing fitness (ln) >= -2 gives criterion met, anything below gives criterion not met

-- ask Item UGGUAGCAAUAUUACGAAAC with self-splicing fitness (ln) of -2 or above?
-- reply criterion not met

-- ask Item UCAGAGCAAUAUUACGGCAU with self-splicing fitness (ln) of -2 or above?
-- reply criterion not met

-- ask Item AGAAAGCAAUAUUACGCUCU with self-splicing fitness (ln) of -2 or above?
-- reply criterion not met

-- ask Item CAGGAGCAAUAUUACGAACU with self-splicing fitness (ln) of -2 or above?
-- reply criterion not met

-- ask Item GUAAAGCAAUAUUACGAUGG with self-splicing fitness (ln) of -2 or above?
-- reply criterion met

-- ask Item UGCAAGCAAUAUUACGAGUG with self-splicing fitness (ln) of -2 or above?
-- reply criterion met

-- ask Item CACCAGCAAUAUUACGCCGC with self-splicing fitness (ln) of -2 or above?
-- reply criterion not met

-- ask Item CUACAGCAAUAUUACGAUGA with self-splicing fitness (ln) of -2 or above?
-- reply criterion not met

-- ask Item UACCAGCAAUAUUACGAAAU with self-splicing fitness (ln) of -2 or above?
-- reply criterion not met

-- ask Item CAGGAGCAAUAUUACGCACG with self-splicing fitness (ln) of -2 or above?
-- reply criterion met

-- ask Item CCGUAGCAAUAUUACGGCGA with self-splicing fitness (ln) of -2 or above?
-- reply criterion not met

-- ask Item GACAAGCAAUAUUACGCUGU with self-splicing fitness (ln) of -2 or above?
-- reply criterion not met

-- ask Item UACCAGCAAUAUUACGAAAA with self-splicing fitness (ln) of -2 or above?
-- reply criterion met

-- ask Item GAGAAGCAAUAUUACGUACG with self-splicing fitness (ln) of -2 or above?
-- reply criterion met

-- ask Item UCAGAGCAAUAUUACGUAAA with self-splicing fitness (ln) of -2 or above?
-- reply criterion not met

-- ask Item CCGUAGCAAUAUUACGGUAG with self-splicing fitness (ln) of -2 or above?
-- reply criterion not met

-- ask Item AUUGAGCAAUAUUACGGUCU with self-splicing fitness (ln) of -2 or above?
-- reply criterion not met

-- ask Item CGCCAGCAAUAUUACGCACU with self-splicing fitness (ln) of -2 or above?
-- reply criterion not met

-- ask Item AAACAGCAAUAUUACGAUUG with self-splicing fitness (ln) of -2 or above?
-- reply criterion not met

-- ask Item GAUAAGCAAUAUUACGAGUG with self-splicing fitness (ln) of -2 or above?
-- reply criterion met

-- ask Item UAGUAGCAAUAUUACGACAA with self-splicing fitness (ln) of -2 or above?
-- reply criterion met

-- ask Item CAAGAGCAAUAUUACGCGUA with self-splicing fitness (ln) of -2 or above?
-- reply criterion not met

-- ask Item CGGGAGCAAUAUUACGCAGG with self-splicing fitness (ln) of -2 or above?
-- reply criterion not met

-- ask Item CGAAAGCAAUAUUACGACCG with self-splicing fitness (ln) of -2 or above?
-- reply criterion met

-- ask Item CGGGAGCAAUAUUACGCAAC with self-splicing fitness (ln) of -2 or above?
-- reply criterion not met

-- ask Item AUUUAGCAAUAUUACGGAUC with self-splicing fitness (ln) of -2 or above?
-- reply criterion not met

-- ask Item GUCCAGCAAUAUUACGGAUA with self-splicing fitness (ln) of -2 or above?
-- reply criterion met

-- ask Item AGUCAGCAAUAUUACGCGUA with self-splicing fitness (ln) of -2 or above?
-- reply criterion met

-- ask Item AUGAAGCAAUAUUACGCGAA with self-splicing fitness (ln) of -2 or above?
-- reply criterion met

-- ask Item ACGGAGCAAUAUUACGUCCA with self-splicing fitness (ln) of -2 or above?
-- reply criterion not met

-- ask Item CUGAAGCAAUAUUACGCUCA with self-splicing fitness (ln) of -2 or above?
-- reply criterion not met

-- ask Item GGUCAGCAAUAUUACGGUAU with self-splicing fitness (ln) of -2 or above?
-- reply criterion met

-- ask Item CUAUAGCAAUAUUACGUGCG with self-splicing fitness (ln) of -2 or above?
-- reply criterion met

-- ask Item CGUCAGCAAUAUUACGGAGA with self-splicing fitness (ln) of -2 or above?
-- reply criterion not met

-- ask Item UAGCAGCAAUAUUACGAUAA with self-splicing fitness (ln) of -2 or above?
-- reply criterion met

-- ask Item UAUCAGCAAUAUUACGCUAA with self-splicing fitness (ln) of -2 or above?
-- reply criterion met

-- ask Item UCAUAGCAAUAUUACGCUCA with self-splicing fitness (ln) of -2 or above?
-- reply criterion met

-- ask Item CUGUAGCAAUAUUACGGCCG with self-splicing fitness (ln) of -2 or above?
-- reply criterion met

-- ask Item UGCAAGCAAUAUUACGGCUG with self-splicing fitness (ln) of -2 or above?
-- reply criterion not met

-- ask Item CCACAGCAAUAUUACGACCG with self-splicing fitness (ln) of -2 or above?
-- reply criterion met

-- ask Item GCUGAGCAAUAUUACGCAGG with self-splicing fitness (ln) of -2 or above?
-- reply criterion met

-- ask Item CUUGAGCAAUAUUACGUCCG with self-splicing fitness (ln) of -2 or above?
-- reply criterion met

-- ask Item CAUGAGCAAUAUUACGUUAG with self-splicing fitness (ln) of -2 or above?
-- reply criterion met

-- ask Item CUUAAGCAAUAUUACGGAGA with self-splicing fitness (ln) of -2 or above?
-- reply criterion not met

-- ask Item GUGAAGCAAUAUUACGGCCU with self-splicing fitness (ln) of -2 or above?
-- reply criterion met

-- ask Item ACCCAGCAAUAUUACGUGUC with self-splicing fitness (ln) of -2 or above?
-- reply criterion not met

-- ask Item GAUGAGCAAUAUUACGGGGC with self-splicing fitness (ln) of -2 or above?
-- reply criterion not met

-- ask Item GGAAAGCAAUAUUACGUGGU with self-splicing fitness (ln) of -2 or above?
-- reply criterion not met

-- ask Item AUGCAGCAAUAUUACGUGUG with self-splicing fitness (ln) of -2 or above?
-- reply criterion not met

-- ask Item UAUUAGCAAUAUUACGGGAA with self-splicing fitness (ln) of -2 or above?
-- reply criterion met

-- ask Item GUCCAGCAAUAUUACGCCUA with self-splicing fitness (ln) of -2 or above?
-- reply criterion met

-- ask Item UGACAGCAAUAUUACGCUCG with self-splicing fitness (ln) of -2 or above?
-- reply criterion met

-- ask Item UAGAAGCAAUAUUACGCGGU with self-splicing fitness (ln) of -2 or above?
-- reply criterion not met

-- ask Item GGGAAGCAAUAUUACGUGAG with self-splicing fitness (ln) of -2 or above?
-- reply criterion met

-- ask Item UCAGAGCAAUAUUACGUUUG with self-splicing fitness (ln) of -2 or above?
-- reply criterion not met

-- ask Item CCUUAGCAAUAUUACGUGAA with self-splicing fitness (ln) of -2 or above?
-- reply criterion not met

-- ask Item UACGAGCAAUAUUACGUCCG with self-splicing fitness (ln) of -2 or above?
-- reply criterion not met

-- ask Item ACCUAGCAAUAUUACGAUAU with self-splicing fitness (ln) of -2 or above?
-- reply criterion met

-- ask Item AUACAGCAAUAUUACGCCGC with self-splicing fitness (ln) of -2 or above?
-- reply criterion not met

-- ask Item CCGGAGCAAUAUUACGGACG with self-splicing fitness (ln) of -2 or above?
-- reply criterion not met

-- ask Item AAGCAGCAAUAUUACGACAG with self-splicing fitness (ln) of -2 or above?
-- reply criterion not met

-- ask Item AAGUAGCAAUAUUACGCCCG with self-splicing fitness (ln) of -2 or above?
-- reply criterion met

-- ask Item UGAGAGCAAUAUUACGCAUG with self-splicing fitness (ln) of -2 or above?
-- reply criterion met

-- ask Item GCCGAGCAAUAUUACGAGUG with self-splicing fitness (ln) of -2 or above?
-- reply criterion not met

Ref: the supplement of paper PMC7877785
